FYI, the data here is from ChEMBL document CHEMBL1146761.

System: L1210
Experiment: In vitro cytotoxicity activity of compound against leukemia L1210 cell line
Type: functional, cell-based, Mus musculus
Details: Mus musculus, L1210
PARAMETER: IC50 (µM)

MOLECULE	UNIT SPEC	RECORDED RESULT
COCCOCCOCCOC(C)c1c(C)c2cc3[nH]c(cc4nc(cc5nc(cc1[nH]2)C(C)=C5CCC(=O)O)C(CCC(=O)O)=C4C)c(C)c3C(C)OCCOCCOCCOC (configuration not stated)	µM	6.6
COCCOC(C)c1c(C)c2cc3[nH]c(cc4nc(cc5nc(cc1[nH]2)C(C)=C5CCC(=O)O)C(CCC(=O)O)=C4C)c(C)c3C(C)OCCOC (configuration not stated)	µM	2.6
